- Tested on: human maximum recommended daily dose, FDA database
- procedure-summary: DSSTox (FDAMDD) FDA Maximum (Recommended) Daily Dose Database
- condition-details: TherapeuticCategory: diagnostic aid; hits give low values
measured-quantity: maximum recommended daily dose (mmol/kg-bw/day)
Answer using only a numeral; do not append any unit.

Sample answers from the record:
O=C(CCCCC(=O)Nc1c(I)cc(I)c(C(=O)O)c1I)Nc1c(I)cc(I)c(C(=O)O)c1I | 0.147
C[C@H](O)C(=O)Nc1c(I)c(C(=O)NC(CO)CO)c(I)c(C(=O)NC(CO)CO)c1I | 0.129
O=C(O)Cn1cc(I)c(=O)c(I)c1 | 0.196
Nc1c(N=Nc2ccc(-c3ccc(N=Nc4cc(S(=O)(=O)O)c5ccccc5c4N)cc3)cc2)cc(S(=O)(=O)O)c2ccccc12 | 0.00538
CN(C(=O)CC(=O)N(C)c1c(I)c(C(=O)NC(CO)C(O)CO)c(I)c(C(=O)NC(CO)C(O)CO)c1I)c1c(I)c(C(=O)NC(CO)C(O)CO)c(I)c(C(=O)NC(CO)C(O)CO)c1I (stereo not drawn) | 0.0615
Cc1cc(-c2ccc(N=Nc3ccc4c(S(=O)(=O)O)cc(S(=O)(=O)O)c(N)c4c3O)c(C)c2)ccc1N=Nc1ccc2c(S(=O)(=O)O)cc(S(=O)(=O)O)c(N)c2c1O | 0.000347

Form: compound = CC(=O)NCc1c(I)c(NC(C)=O)c(I)c(C(=O)O)c1I ; maximum recommended daily dose (mmol/kg-bw/day) = 0.159

The value of maximum recommended daily dose (mmol/kg-bw/day) measured for the compound CC(=O)N(CC(C)C(=O)O)c1c(I)cc(I)c(N)c1I (stereo not drawn) turned out to be 0.122

* * *

compounds and their reported maximum recommended daily dose (mmol/kg-bw/day)
- Test system: human maximum recommended daily dose, FDA database
- procedure-summary: DSSTox (FDAMDD) FDA Maximum (Recommended) Daily Dose Database
- condition-details: TherapeuticCategory: anxiolytic; skeletal muscle relaxant; hits give low values
Returns: the value as a bare number; no unit string appended.

Some compounds with recorded maximum recommended daily dose (mmol/kg-bw/day):
CN1C(=O)CCS(=O)(=O)C1c1ccc(Cl)cc1 (centres undefined) | 0.0244
COc1ccccc1OCC1CNC(=O)O1 (centres undefined) | 0.0896
CNCC12CCC(c3ccccc31)c1ccccc12 | 0.00401

Now for a further compound.
Lookup result for CN1C(=O)CN=C(c2ccccc2)c2cc(Cl)ccc21 ; measured maximum recommended daily dose (mmol/kg-bw/day): 0.00234

* * *

- System: human maximum recommended daily dose, FDA database
- procedure-summary: DSSTox (FDAMDD) FDA Maximum (Recommended) Daily Dose Database
- condition-details: TherapeuticCategory: treatment of menopausal syndrome; hits give low values
measured-quantity: maximum recommended daily dose (mmol/kg-bw/day)
// no unit string in output, number only

The reported maximum recommended daily dose (mmol/kg-bw/day) of the compound C#C[C@]1(O)CC[C@H]2[C@@H]3[C@H](C)CC4=C(CCC(=O)C4)[C@H]3CC[C@@]21C was 0.000133

* * *

- Tested on: human maximum recommended daily dose, FDA database
- procedure-summary: DSSTox (FDAMDD) FDA Maximum (Recommended) Daily Dose Database
- condition-details: TherapeuticCategory: anticonvulsant; skeletal muscle relaxant; hits give low values
measured-quantity: maximum recommended daily dose (mmol/kg-bw/day)

In plain terms, CN1C(=O)CN=C(c2ccccc2)c2cc([N+](=O)[O-])ccc21 has a documented maximum recommended daily dose (mmol/kg-bw/day) of 0.000282
